B1: RIPK4 (parent)
chain: RERMELLEEAKKMEMAKFRYILPV

# Variants of: B1
# EXPERIMENT_NOTES: protein stability index of a GFP-peptide fusion (GPS, HEK-293T) (PSI 1-6); higher = more stable;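 further: lentivirally expressed fusions sorted by FACS into six bins by GFP to DsRed ratio, PSI derived from sequencing read proportions per bin multiplied by bin number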
# TEST_SETTINGS: c terminus: a fixed tail appended
# protein stability index per entry
The response must contain the number and no unit.

Answered examples (6):
MACROMOLECULE_SEQUENCE: RERMEDLEEAKKMEMAKFRYILPV [L6D]
protein stability index: 4.56
--
MACROMOLECULE_SEQUENCE: RERMELLEDAKKMEMAKFRYILPV [E9D]
protein stability index: 3.91
--
MACROMOLECULE_SEQUENCE: YERMELLEEAKKMEMAKFRYILPV [R1Y]
protein stability index: 2.9
--
MACROMOLECULE_SEQUENCE: RERMNLLEEAKKMEMAKFRYILPV [E5N]
protein stability index: 2.87
--
MACROMOLECULE_SEQUENCE: RERMELLEEAKKNEMAKFRYILPV [M13N]
protein stability index: 3.8
--
MACROMOLECULE_SEQUENCE: RERMELLEEAKKMEMAGFRYILPV [K17G]
protein stability index: 2.94

Indicate the recorded protein stability index value for this variant: RERMELLEEAKHMEMAKFRYILPV [K12H]
3.36

Please look at this variant and report its protein stability index: RERMEKLEEAKKMEMAKFRYILPV [L6K]
3.88

Return protein stability index (reported value) for this variant: MERMELLEEAKKMEMAKFRYILPV [R1M]
3.98

Given the variant RERMELLEEAKEMEMAKFRYILPV [K12E] , write its reported protein stability index.
3.46

Supply protein stability index value. Item: RERMELLEEAKKPEMAKFRYILPV [M13P]
2.34

Provide measured protein stability index value, entry: RERMELLEEAKKMEMAKFRYILPE [V24E]
4.32

Hello, please tell me recorded protein stability index for this one: RERMELDEEAKKMEMAKFRYILPV [L7D]
3.43

Give reported protein stability index value for RERMELLEEAKKMEKAKFRYILPV [M15K]
3.93

Recall and state the measured protein stability index for RERMELLEEAKKMEMAKFRYILPF [V24F] .
3.16

Item RERMELLREAKKMEMAKFRYILPV [E8R] : provide protein stability index
3.5

Supply protein stability index value. Item: RERMELLEEARKMEMAKFRYILPV [K11R]
2.81

Respond only with protein stability index recorded for RERMELLEEAIKMEMAKFRYILPV [K11I]
2.39

Please indicate protein stability index recorded for RERMELLVEAKKMEMAKFRYILPV [E8V]
1.69

For RWRMELLEEAKKMEMAKFRYILPV [E2W] , write its protein stability index.
1.47

Answer with reported protein stability index of RERNELLEEAKKMEMAKFRYILPV [M4N]
3.94

Identify the reported protein stability index for the following entry. RERIELLEEAKKMEMAKFRYILPV [M4I]
3.08
